# protocol details: Measurement of lipophilicity (LogP): octanol-water partition coefficient of the 99mTc complexes
# Format: physicochemical
# condition label: 99mTc complex of the compound; 1-octanol / 50 mM phosphate buffer pH 7.4, room temperature

>  <molecule>
CC[C@H](C)[C@H](NC(=O)[C@@H]1CCCN1C(=O)[C@H](Cc1cnc[nH]1)NC(=O)[C@@H](NC(=O)[C@H](Cc1ccc(O)cc1)NC(=O)[C@@H](NC(=O)[C@H](CCCNC(=N)N)NC(=O)NCCCCCCC(CNCCN)CNCCN)C(C)C)[C@@H](C)CC)C(=O)O (99mTc complex, metal not drawn) [Compound 7]

>  <Log P (octanol/50 mM phosphate buffer)>
<−2

$$$$
>  <molecule>
NCCNCC(CNCCN)CC(=O)NCc1ccccc1 [Compound 3]

>  <Log P (octanol/50 mM phosphate buffer)>
<−2

$$$$
>  <molecule>
CCCCc1nc(Cl)c(CNC(=O)C(CC(C)C)NC(=O)CC(CNCCN)CNCCN)n1Cc1ccc(-c2ccccc2-c2nn[nH]n2)cc1 (stereo not drawn) (99mTc complex, metal not drawn) [Compound 4]

>  <Log P (octanol/50 mM phosphate buffer)>
+0.6

$$$$
